Known protein stability index of a selection of variants
B1: GALNT9 (parent)
chain: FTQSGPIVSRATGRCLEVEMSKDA

- Variants of: B1
- Protocol Summary: protein stability index of a GFP-peptide fusion (GPS, HEK-293T) (PSI 1-6); higher = more stable;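 note: lentivirally expressed fusions sorted by FACS into six bins by GFP to DsRed ratio, PSI derived from sequencing read proportions per bin multiplied by bin number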
- Test Settings: c terminus: a fixed tail appended
Readout: protein stability index

- M20W: 1.55
- S21C: 1.47
- A11D: 3.15
- Q3W: 1.51
- I7S: 2.52
- P6D: 2.08
- R14K: 1.95
- V18I: 2.32
- R10N: 2.01
- L16C: 2.08
- E19A: 2.49
- S9M: 2.28
- K22P: 3.13
- V8P: 2.07
- D23E: 2.44
- G5H: 2.42
- S4K: 1.88
- V18P: 2.59
- S9C: 2.17
- F1H: 2.93
- C15P: 3.11
- A11Y: 3.67
